target: human IL-13 (human, UniProt P35225 35-146, biotinylated on the Biacore chip); experiment: cell-based or functional assay
Sequence (P35225 35-146 limits assumed): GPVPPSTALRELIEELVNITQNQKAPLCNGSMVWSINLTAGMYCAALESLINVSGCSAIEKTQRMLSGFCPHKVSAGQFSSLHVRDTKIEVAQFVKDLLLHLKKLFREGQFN
recorded-metric: EC50, HEK293 STAT6 SEAP reporter assay, hIL-13
I'd appreciate it if you wrote the number followed by its unit.

Prompt: Return value of EC50, HEK293 STAT6 SEAP reporter assay, hIL-13 for input DOM10-275-99 (other) VH: EVHLLESGGGLVQPGGSLRLSCAASGFTFDSAEMDWVRQAPGKGLEWVSTISPSRRGTYYADSVKGRFTISRDNSKNTLYLQMNSLRAEDTAIYYCAKAYTGRSYWGPGTLVTVSS , no commentary.
Response: 2.8 nM

Prompt: Return value of EC50, HEK293 STAT6 SEAP reporter assay, hIL-13 for input DOM10-53-474 (other, VH dAb) VH: GVQLLESGGGLVQPGGSLRLSCAASGFTFAWYDMGWVRQAPGKGLEWVSSIDWHGEVTYYADSVKGRFTISRDNSKNTLYLQMNSLRAEDTAVYYCATAEDEPGYDYWGQGTLVTVSS , no commentary.
Response: 0.63 nM

Prompt: Return value of EC50, HEK293 STAT6 SEAP reporter assay, hIL-13 for input DOM10-275-100 (other) VH: GVQLLESGGGLVQPGGSLRLSCAASGFTFDSAEMDWVRQAPGKGLEWVSTISPSRRGTYYADSVKGRFTISRDNSKNTLYLQMNSLRAEDTAVYYCAKAYTGRSYWGPGTLVTVSS , no commentary.
Response: 2.8 nM
